In this section we review reported melting point values for a set of compounds.

Examples from the recorded data:
COMPOUND: CCOC(=O)/C=C/c1cn(-c2ccccc2)nc1OCc1ccc(OCc2nc(-c3ccccc3)oc2C)cc1 [Example 82]
melting point: 154 to 155 °C
//
COMPOUND: CCOP(=O)(/C=C/C=C/c1cn(-c2ccccc2)nc1OCc1ccc(OCc2nc(-c3ccco3)oc2C)c(OC)c1)OCC
melting point: 143 to 144 °C
//
COMPOUND: CCOP(=O)(/C=C/c1cn(-c2ccccc2)nc1OCc1ccc(OCc2nc(-c3ccccc3)oc2C)c(OC)c1)OCC [Example 146]
melting point: 92 to 93 °C
//
COMPOUND: COc1cc(COc2nn(-c3ccccc3)cc2/C=C/c2nc(N3CCOCC3)sc2C)ccc1OCc1nc(-c2ccc(CC(=O)O)cc2)oc1C [Example 385]
melting point: 171 to 173 °C
//
COMPOUND: CCOC(=O)Cc1ccc(-c2nc(COc3ccc(COc4nn(-c5ccccc5)cc4/C=C/c4coc(C(C)C)n4)cc3OC)c(C)o2)cc1 [Example 367]
melting point: 106 to 108 °C
//
COMPOUND: COc1cc(COc2nn(C)cc2CO)ccc1OCc1nc(-c2ccccc2)oc1C [Example 266]
melting point: 108 to 109 °C
//
COMPOUND: CCOC(=O)c1cn(Cc2ccccc2)nc1OCc1ccc(OCc2nc(-c3ccco3)oc2C)cc1OC [Example 52]
melting point: 137 to 138 °C
//
COMPOUND: CCOC(=O)Cc1ccc(-c2nc(COc3ccc(COc4nn(-c5ccccc5)cc4C=O)cc3OC)c(C)o2)cc1 [Example 246]
melting point: 157 to 158 °C

Input: Indicate the recorded melting point value for this compound: CCOC(=O)/C=C/c1cn(C)nc1OCc1ccc(OCc2nc(-c3ccco3)oc2C)c(OC)c1 [Example 165]
Output: 135 to 136 °C

Input: Indicate the recorded melting point value for this compound: CCOC(=O)Cc1ccc(-c2nc(COc3ccc(COc4nn(-c5ccccc5)cc4/C=C/c4csc(C)n4)cc3OC)c(C)o2)cc1 [Example 356]
Output: 153 to 155 °C

Input: Indicate the recorded melting point value for this compound: CCOC(=O)c1cn(Cc2ccccc2)nc1OCc1ccc(OCc2nc(-c3ccco3)oc2C)c(CC)c1 [Example 68]
Output: 125 to 126 °C

Input: Indicate the recorded melting point value for this compound: CCOP(=O)(/C=C/c1cn(-c2ccccc2)nc1OCc1ccc(OCc2nc(N3CCC(C(=O)O)CC3)sc2C)c(OC)c1)OCC
Output: 159 to 160 °C

Input: Indicate the recorded melting point value for this compound: Cc1oc(-c2ccccc2)nc1COc1ccc(COc2nn(-c3ccccc3)cc2C=O)cc1 [Example 80]
Output: 152 to 153 °C

Input: Indicate the recorded melting point value for this compound: CCOC(=O)/C=C/c1cn(Cc2ccccc2)nc1OCc1ccc(OCc2nc(-c3ccco3)oc2C)c(OC)c1 [Example 259]
Output: 147 to 148 °C

Input: Indicate the recorded melting point value for this compound: CCOP(=O)(/C=C\c1cn(-c2ccccc2)nc1OCc1ccc(OCc2nc(-c3cccc(C(=O)O)c3)oc2C)c(OC)c1)OCC
Output: 158 to 159 °C

Input: Indicate the recorded melting point value for this compound: CCOC(=O)c1cn(CC)nc1OCc1ccc(OCc2nc(-c3ccco3)oc2C)c(OC)c1 [Example 172]
Output: 114 to 115 °C

Input: Indicate the recorded melting point value for this compound: CCOC(=O)c1cn(Cc2ccccc2)nc1OCc1ccc(OCc2nc(-c3ccco3)oc2C)c(C)c1 [Example 60]
Output: 120 to 121 °C

Input: Indicate the recorded melting point value for this compound: Cc1oc(-c2ccco2)nc1COc1ccc(COc2nn(-c3ccccc3)cc2/C=C/C(=O)O)cc1 [Example 88]
Output: 144 to 145 °C

Input: Indicate the recorded melting point value for this compound: COc1cc(COc2nn(-c3ccccc3)cc2/C=C/C(N)=O)ccc1OCc1nc(-c2ccco2)oc1C [Example 94]
Output: 187 to 188 °C

Input: Indicate the recorded melting point value for this compound: COc1cc(COc2nn(-c3ccccc3)cc2/C=C/c2nc(N3CCOCC3)sc2C)ccc1OCc1nc(-c2cccc(C(=O)O)c2)oc1C [Example 310]
Output: 215 to 217 °C (dec.)

Input: Indicate the recorded melting point value for this compound: COc1ccc(COc2nn(Cc3ccccc3)cc2C=O)cc1OCc1nc(-c2ccco2)oc1C [Example 34]
Output: 142 to 143 °C

Input: Indicate the recorded melting point value for this compound: COc1cc(COc2nn(-c3ccccc3)cc2C#N)ccc1OCc1nc(-c2ccco2)oc1C [Example 77]
Output: 167 to 168 °C

Input: Indicate the recorded melting point value for this compound: COC(=O)c1cc(COc2nn(-c3ccccc3)cc2C=O)ccc1OCc1nc(-c2ccco2)oc1C [Example 163]
Output: 173 to 174 °C

Input: Indicate the recorded melting point value for this compound: CCOC(=O)c1ccc(-c2nc(COc3ccc(COc4nn(-c5ccccc5)cc4/C=C/P(=O)(OCC)OCC)cc3OC)c(C)o2)o1
Output: 129 to 130 °C

Input: Indicate the recorded melting point value for this compound: CCOC(=O)/C=C/c1nc(-c2ccccc2)oc1COc1ccc(OCc2nc(-c3ccccc3)oc2C)cc1 [Example 258]
Output: 107 to 108 °C

* * *

READOUT_KIND: melting point

Examples from the recorded data:
MOLECULE: CCOC(=O)Cc1ccc(-c2nc(COc3ccc(COc4nn(-c5ccccc5)cc4/C=C/c4coc(C(C)(C)C)n4)cc3OC)c(C)o2)cc1 [Example 368]
melting point: 126 to 129 °C
//
MOLECULE: CCOC(=O)/C=C/c1nc(COc2ccc(COc3nn(-c4ccccc4)cc3/C=C/P(=O)(OCC)OCC)cc2OC)c(C)o1
melting point: 130 to 131 °C

Input: Indicate the recorded melting point value for this molecule: CCOP(=O)(/C=C/c1cn(-c2ccccc2)nc1OCc1ccc(OCc2nc(-c3ccco3)oc2C)nc1)OCC
Output: 134 to 135 °C

Input: Indicate the recorded melting point value for this molecule: CCOC(=O)Cc1ccc(-c2nc(COc3ccc(COc4nn(-c5ccccc5)cc4/C=C\c4csc(C(C)C)n4)cc3OC)c(C)o2)cc1 [Example 360]
Output: 126 to 127 °C

Input: Indicate the recorded melting point value for this molecule: COc1cc(COc2nn(CCO)cc2CO)ccc1OCc1nc(-c2ccco2)oc1C [Example 176]
Output: 120 to 122 °C

Input: Indicate the recorded melting point value for this molecule: CCOP(=O)(/C=C/c1cn(-c2ccccc2)nc1OCc1ccc(OCc2nc(-c3cccc(C(=O)O)c3)oc2C)cc1)OCC
Output: 153 to 155 °C

Input: Indicate the recorded melting point value for this molecule: CC(=O)NC(=O)c1cn(Cc2ccccc2)nc1OCc1ccc(OCc2nc(-c3ccco3)oc2C)cc1 [Example 9]
Output: 193 to 194 °C

* * *

READOUT_KIND: melting point

Examples from the recorded data:
SMILES_INPUT: COc1cc(CN(C)c2nn(-c3ccccc3)cc2C=O)ccc1OCc1nc(-c2ccco2)oc1C
melting point: 101 to 102 °C

SMILES_INPUT: Cc1oc(-c2ccco2)nc1COc1ccc(COc2nn(Cc3ccccc3)cc2C=O)cn1
melting point: 104 to 105 °C

SMILES_INPUT: COc1cc(C(=O)Nc2nn(-c3ccccc3)cc2C=O)ccc1OCc1nc(-c2ccccc2)oc1C
melting point: 234 to 235 °C

SMILES_INPUT: COc1cc(COc2nn(-c3ccccc3)cc2CC2=NCCO2)ccc1OCc1nc(-c2ccco2)oc1C
melting point: 95 to 96 °C

SMILES_INPUT: COc1cc(COc2nn(-c3ccccc3)cc2C=O)ccc1OCc1cn(-c2ccccn2)nc1C
melting point: 179 to 180 °C

Input: Indicate the recorded melting point value for this compound: CCc1nc(/C=C/c2cn(-c3ccccc3)nc2OCc2ccc(OCc3nc(-c4cccc(C(=O)NS(C)(=O)=O)c4)oc3C)c(OC)c2)cs1
Output: 211 to 213 °C

Input: Indicate the recorded melting point value for this compound: CCOP(=O)(/C=C/c1cn(-c2ccccc2)nc1OCc1ccc(OCc2nc(-c3cccc(C(N)=O)c3)oc2C)c(OC)c1)OCC
Output: 127 to 128 °C

Input: Indicate the recorded melting point value for this compound: COc1cc(COc2nn(-c3ccccc3)cc2C(C[N+](=O)[O-])C[N+](=O)[O-])ccc1OCc1nc(-c2ccco2)oc1C
Output: 126 to 127 °C

Input: Indicate the recorded melting point value for this compound: COc1cc(COc2nn(-c3ccccc3)cc2/C=C/C(=O)N(C)OC)ccc1OCc1nc(-c2ccco2)oc1C
Output: 173 to 174 °C

Input: Indicate the recorded melting point value for this compound: CCOP(=O)(/C=C/c1cnc(-c2ccccc2)nc1OCc1ccc(OCc2nc(-c3ccco3)oc2C)c(OC)c1)OCC
Output: 103 to 104 °C

Input: Indicate the recorded melting point value for this compound: COC(=O)c1cc(-c2nc(COc3ccc(COc4nn(-c5ccccc5)cc4C=O)cc3OC)c(C)o2)ccc1C
Output: 195 to 196 °C

Input: Indicate the recorded melting point value for this compound: COc1cc(COc2nn(-c3ccccc3)cc2/C=C/P(=O)(O)O)ccc1OCc1nc(-c2ccco2)oc1C
Output: 138 to 140 °C

Input: Indicate the recorded melting point value for this compound: CCOc1cc(COc2nn(Cc3ccccc3)cc2C=O)ccc1OCc1nc(-c2ccco2)oc1C
Output: 144 to 145 °C

Input: Indicate the recorded melting point value for this compound: COc1cc(COc2nn(-c3ccccc3)cc2/C=C/C=O)ccc1OCc1nc(-c2ccco2)oc1C
Output: 134 to 135 °C

Input: Indicate the recorded melting point value for this compound: CCCc1nnc(CCc2cc(OCc3ccc(OCc4nc(-c5ccccc5)oc4C)c(OC)c3)nn2-c2ccccc2)o1
Output: 85 to 86 °C

Each recorded value in this set is attributed to patent US7368578B2.
